- system-name: Neuronal acetylcholine receptor subunit alpha-7 (Rattus norvegicus, UniProt Q05941)
- Sequence (Q05941 whole entry): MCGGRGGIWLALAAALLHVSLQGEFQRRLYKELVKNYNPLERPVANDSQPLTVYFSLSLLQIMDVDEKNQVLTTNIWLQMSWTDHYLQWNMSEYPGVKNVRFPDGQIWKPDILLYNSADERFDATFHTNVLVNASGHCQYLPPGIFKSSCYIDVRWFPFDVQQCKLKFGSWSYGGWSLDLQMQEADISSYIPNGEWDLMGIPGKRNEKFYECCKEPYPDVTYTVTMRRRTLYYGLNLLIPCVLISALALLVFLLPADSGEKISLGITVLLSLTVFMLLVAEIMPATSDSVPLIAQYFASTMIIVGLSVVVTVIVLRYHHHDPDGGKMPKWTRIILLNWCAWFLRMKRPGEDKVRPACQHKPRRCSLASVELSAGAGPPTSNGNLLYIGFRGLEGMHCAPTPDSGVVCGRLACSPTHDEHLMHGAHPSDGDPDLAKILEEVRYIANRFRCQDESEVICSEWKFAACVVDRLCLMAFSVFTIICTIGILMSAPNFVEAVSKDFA
- protocol-text: Inhibition of [125I]-iodo-MLA binding to Nicotinic acetylcholine receptor alpha-7 in rat cerebral cortex
- Type: tissue-based
pKi: −log10 of the molar value.
measurement-kind: pKi

> print(dat)
                                   compound  measurement.kind  value.measured
1  C#Cc1cncc(C2CC3CCC2N3)c1 (stereo not drawn)               pKi            8.30
2  Nc1cncc(C2CC3CCC2N3)c1 (stereo not drawn)               pKi            6.14
3  Brc1cncc(C2CC3CCC2N3)c1 (stereo not drawn)               pKi            6.79
